# System Name: T1, human Tigit extracellular domain recombinant protein hTigit-his (Acrobiosystem, Cat.TIT-H2H3) (human, UniProt Q495A1 22-141)
# T1 construct: extracellular domain; Bought; not shown: his tag
# T1 sequence (looked up): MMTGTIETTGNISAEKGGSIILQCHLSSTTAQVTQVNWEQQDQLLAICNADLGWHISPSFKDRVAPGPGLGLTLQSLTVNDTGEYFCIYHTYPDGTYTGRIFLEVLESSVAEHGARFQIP
# Protocol Summary: BLI epitope binning (ForteBIO QKe), hTigit-his on anti-Penta-HIS sensor; competitor R0223
Measured Parameter: epitope binning signal (name and unit not given)

Tigit-5 mouse monoclonal antibody (antibody, V domains shown, Mouse monoclonal antibody from hybridoma) VH: QVQLQQPGAELVRPGASVKLSCKASGYSFTSYWMNWVKQRPGQGLEWIGMIRPSDSETRLNQMFKDKATLTVDKSSSTAYMQLSSPTSDDSAVYYCAGIHDYGHGAYWGQGTLVTVSA VL: DIQMIQSPASLSVSVGETVTITCRASENIYSNLAWYQQKQGKSPQLLVYAASHLPDGVPSRFSGSGSGTQYSLKINSLQSEDFGSYYCQHFWGTPRTFGGGTKLEIKR	0.0443
3Tigit-16 mouse monoclonal antibody (antibody, V domains shown, Mouse monoclonal antibody from hybridoma) VH: EVQLQQSGPELVKPGASVKMSCKASGFTFTDYFMDWVKQSRGASFEWIGRLNPNNGRTSYNQKFKGKATLTVDKSSSTAYMELNSLTSEDSAVYYCARGDLGRWYFDVWGAGTTVTVSS VL: QIVLTQSPAIMSASPGEKVTMTCSASSSVSYMHWYQQKSGTSPKRWIYDTSKLASGVPTRFSGSGSGTSYSLTISSMEAEDAASYFCQQWSSNSLTFGAGTKLELKR	0.008
